B1: CDS2 (parent)
chain: IHSIALSTFASLIGPFGGFFASGF

# Variants of: B1
# experiment_notes: protein stability index of a GFP-peptide fusion (GPS, HEK-293T) (PSI 1-6); higher = more stable;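 also: lentivirally expressed fusions sorted by FACS into six bins by GFP to DsRed ratio, PSI derived from sequencing read proportions per bin multiplied by bin number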
# applied_conditions: c terminus: a fixed tail appended
Attribute: protein stability index
measured_property: protein stability index

* L12N | 2.95
* L12P | 2.99
* S22E | 2.95
* G14D | 3.05
* A10C | 2.97
* A10W | 3.06
* F24D | 3.08
* A5I | 3.04
* S7M | 3.09
* S7V | 3
